assay: Cytotoxicity against HEK293 cells assessed as viable cells at 0.1 uM after 48 hrs by aqueous one solution cell proliferation assay relative to control; type: cell-based; details: human, read-out: Activity
measurement kind: viability at 48 h, 0.1 µM

Look at this compound and give its reported viability at 48 h, 0.1 µM. CC(C)OC(=O)C(C)(C)Oc1ccc(C(=O)c2ccc(Cl)cc2)cc1 [FENOFIBRATE]
> 90%

---

Measured fold change (FC), listed per entry.
target: Peroxisome proliferator-activated receptor alpha (Homo sapiens) (UniProt Q07869); test: Agonist activity at human PPARalpha expressed in HEK293 cells co-transfected with PPRE assessed as beta-galactosidase signal at 25 uM after 48 hrs by reporter gene assay relative to control; type: functional, cell-based
Sequence (Q07869 whole entry): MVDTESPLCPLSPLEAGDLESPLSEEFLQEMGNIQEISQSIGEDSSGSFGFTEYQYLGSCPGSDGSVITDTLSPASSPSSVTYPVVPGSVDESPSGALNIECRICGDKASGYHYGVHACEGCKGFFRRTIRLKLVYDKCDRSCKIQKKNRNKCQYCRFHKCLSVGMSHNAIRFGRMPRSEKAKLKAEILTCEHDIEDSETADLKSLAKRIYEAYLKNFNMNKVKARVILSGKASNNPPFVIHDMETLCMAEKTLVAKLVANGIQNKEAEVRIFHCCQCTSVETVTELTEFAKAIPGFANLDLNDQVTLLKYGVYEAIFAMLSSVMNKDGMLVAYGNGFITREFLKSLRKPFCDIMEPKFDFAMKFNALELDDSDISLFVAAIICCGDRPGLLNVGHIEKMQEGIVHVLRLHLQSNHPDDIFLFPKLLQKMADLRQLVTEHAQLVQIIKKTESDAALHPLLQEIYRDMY
Answer with the value's number alone.

INSERT INTO results (mol, measurement_kind, value_observed) VALUES
  ('O=c1c(-c2ccc(F)cc2)coc2cc(O)ccc12', 'fold change (FC)', 8.6);

What value of fold change (FC) has been recorded for this entry: O=c1c(-c2ccc(O)cc2)coc2cc(O)ccc12
6.2

I'd like to know its fold change (FC). The molecule in question is COc1ccc2c(=O)c(-c3ccc4c(c3)OCO4)coc2c1
2.2

I'd like to know its fold change (FC). The molecule in question is O=c1cc(-c2cccc(O)c2)oc2cc(O)ccc12
8.2

Using the record for O=c1cc(-c2ccc(O)cc2)oc2ccc(O)cc12 , report its fold change (FC).
2.6

Given O=c1cc(-c2ccc(O)cc2)oc2cc(O)ccc12 , state its recorded fold change (FC).
1.5

Suppose we examine the molecule COc1ccc(-c2coc3cc(O)ccc3c2=O)cc1 ; what fold change (FC) value has been reported?
7.5

Could you tell me which fold change (FC) is on file for O=c1cc(-c2ccc(O)cc2)oc2cc(O)cc(O)c12 ?
2

Given the molecule COc1cccc(-c2coc3cc(O)ccc3c2=O)c1 , what is its reported fold change (FC)?
16.5

Form field: reported fold change (FC) of COc1cc(-c2cc(=O)c3c(O)cc(O)cc3o2)ccc1O
1.1

Entry under review: COc1cc(OC)cc(-c2coc3cc(O)ccc3c2=O)c1 . Reported fold change (FC)?
4.8

I'd like to know its fold change (FC). The molecule in question is COc1ccc([C@@H]2CC(=O)c3c(O)cc(O)cc3O2)cc1O
1.9

# credit: ChEMBL document CHEMBL1154598
